Each entry below carries its recorded kon.
target: SARS-COV-2 RBD extracellular domain expressed with a C-terminal myc-myc-hexahistidine tag (SARS-COV-2 RBD-mmH) (SARS-CoV-2); test: SPR Biacore, mAb captured on anti-hFc, RBD-mmH analyte, 37 C
The reply should be a number in M⁻¹ s⁻¹, with the unit left off.

mAb14258 (antibody, V domains shown) VH: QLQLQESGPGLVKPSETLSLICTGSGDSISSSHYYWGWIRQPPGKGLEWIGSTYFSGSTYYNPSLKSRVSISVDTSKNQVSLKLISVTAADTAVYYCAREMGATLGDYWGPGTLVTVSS VL: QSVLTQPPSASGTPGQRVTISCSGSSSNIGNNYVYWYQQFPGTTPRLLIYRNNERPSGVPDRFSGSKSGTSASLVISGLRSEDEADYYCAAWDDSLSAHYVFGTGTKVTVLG	2.14e+06
mAb14294 (antibody, V domains shown) VH: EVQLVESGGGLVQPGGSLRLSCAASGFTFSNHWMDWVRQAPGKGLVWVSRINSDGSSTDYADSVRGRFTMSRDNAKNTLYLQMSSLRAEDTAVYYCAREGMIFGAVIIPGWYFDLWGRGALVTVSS VL: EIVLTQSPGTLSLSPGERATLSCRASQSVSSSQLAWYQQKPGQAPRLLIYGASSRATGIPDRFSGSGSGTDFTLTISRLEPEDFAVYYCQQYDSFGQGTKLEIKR	600000

Alright, here's another binder for you.
Task item: Specify kon for mAb15163 (antibody, V domains shown) VH: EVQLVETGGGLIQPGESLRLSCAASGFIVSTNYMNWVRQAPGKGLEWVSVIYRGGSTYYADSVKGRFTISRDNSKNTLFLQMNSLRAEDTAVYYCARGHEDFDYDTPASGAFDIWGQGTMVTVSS VL: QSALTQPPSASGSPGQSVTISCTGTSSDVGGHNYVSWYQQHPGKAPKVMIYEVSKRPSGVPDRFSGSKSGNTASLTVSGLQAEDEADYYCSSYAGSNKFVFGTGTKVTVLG and stop.
Reply: 218000
